- System: FLK-1 receptor
- assay-summary: FLK-1 Assay (cellular/catalytic ELISA, VEGF-stimulated phosphotyrosine)
- Assay type: cell-based
- Parameters: concentration or dose not given beside the values
- condition-summary: protocol P.110
Where Flk Kinase % Inhibition (P.110) equals or exceeds -10%, the correct label is 1; where it does not, the label is -1.

- smiles-str: "COc1ccc(C=C2C(=O)Nc3ccc(S(=O)(=O)N4CCOCC4)cc32)cc1O"
  class: -1
- smiles-str: "CNS(=O)(=O)c1ccc2c(c1)C(=Cc1cccc(Oc3ccc(Cl)c(Cl)c3)c1)C(=O)N2"
  class: 1
- smiles-str: "O=C1Nc2ccc(I)cc2C1=Cc1cc(O)ccc1[N+](=O)[O-]"
  class: -1
- smiles-str: "CCCOc1ccc(C=C2C(=O)Nc3ccc(Br)c(C)c32)cc1"
  class: 1
- smiles-str: "Cn1cc(C=C2C(=O)Nc3ccc(I)cc32)c2ccccc21"
  class: 1

###

Biochem EGFR % Inhibition (P.167) values by entry
- measured-on: EGFR (Homo sapiens)
- Construct: endogenous in cells; host or cells: A431 cells (lysate, captured with SUMO1 anti-EGFR antibody)
- Sequence (P00533 25-1210): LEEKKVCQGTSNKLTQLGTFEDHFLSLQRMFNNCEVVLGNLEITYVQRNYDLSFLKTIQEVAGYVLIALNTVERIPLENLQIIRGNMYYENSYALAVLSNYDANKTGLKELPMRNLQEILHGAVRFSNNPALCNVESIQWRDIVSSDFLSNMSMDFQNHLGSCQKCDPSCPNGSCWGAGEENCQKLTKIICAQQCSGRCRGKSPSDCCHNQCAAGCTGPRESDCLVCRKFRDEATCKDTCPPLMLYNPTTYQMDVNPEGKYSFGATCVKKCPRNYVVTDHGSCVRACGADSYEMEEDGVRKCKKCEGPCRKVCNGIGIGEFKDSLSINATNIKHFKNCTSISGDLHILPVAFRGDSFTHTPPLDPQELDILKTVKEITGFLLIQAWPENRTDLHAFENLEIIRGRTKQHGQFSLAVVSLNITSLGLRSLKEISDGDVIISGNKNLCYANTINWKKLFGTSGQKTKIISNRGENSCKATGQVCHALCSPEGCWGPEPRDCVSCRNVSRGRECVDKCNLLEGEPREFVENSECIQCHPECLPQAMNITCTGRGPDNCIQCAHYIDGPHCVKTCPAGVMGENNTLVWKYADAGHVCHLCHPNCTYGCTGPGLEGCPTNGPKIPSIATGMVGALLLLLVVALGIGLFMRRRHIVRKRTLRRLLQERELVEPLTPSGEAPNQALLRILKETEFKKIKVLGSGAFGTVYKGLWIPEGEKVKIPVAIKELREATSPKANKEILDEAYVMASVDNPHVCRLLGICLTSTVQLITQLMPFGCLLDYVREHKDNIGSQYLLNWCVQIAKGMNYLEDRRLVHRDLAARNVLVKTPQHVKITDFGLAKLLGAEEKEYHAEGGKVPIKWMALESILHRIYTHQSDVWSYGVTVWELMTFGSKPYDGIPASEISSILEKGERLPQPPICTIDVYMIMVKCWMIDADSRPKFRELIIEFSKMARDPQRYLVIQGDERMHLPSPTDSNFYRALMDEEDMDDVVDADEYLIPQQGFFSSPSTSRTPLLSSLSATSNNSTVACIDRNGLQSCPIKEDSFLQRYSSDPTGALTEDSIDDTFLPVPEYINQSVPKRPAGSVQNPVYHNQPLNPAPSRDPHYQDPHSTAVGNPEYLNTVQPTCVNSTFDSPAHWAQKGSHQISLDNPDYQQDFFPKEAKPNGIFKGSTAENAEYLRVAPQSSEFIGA
- assay-summary: Biochemical EGFR Assay
- Parameters: concentration or dose not given beside the values
- condition-summary: protocol P.167
observable: Biochem EGFR % Inhibition (P.167)

- smiles-str: "Cc1[nH]c2ccccc2c1C=C1C(=O)Nc2ccc(CCCl)cc21"
  observable: "Biochem EGFR % Inhibition (P.167)"
  data-value: "−9.1%"
- smiles-str: "O=C1Nc2ccc(I)cc2C1=Cc1cc(O)c(O)c(O)c1"
  observable: "Biochem EGFR % Inhibition (P.167)"
  data-value: "59.4%"
- smiles-str: "O=C1Nc2ccc(S(=O)(=O)Nc3ccc(C(F)(F)F)cc3)cc2C1=Cc1ccc(O)cc1Cl"
  observable: "Biochem EGFR % Inhibition (P.167)"
  data-value: "33.5%"
- smiles-str: "CNS(=O)(=O)c1ccc2c(c1)C(=Cc1cn(C)c3ccccc13)C(=O)N2"
  observable: "Biochem EGFR % Inhibition (P.167)"
  data-value: "−3.0%"
- smiles-str: "O=C1Nc2ccc(S(=O)(=O)N3CCOCC3)cc2C1=Cc1cnc2ccccc2c1"
  observable: "Biochem EGFR % Inhibition (P.167)"
  data-value: "5.8%"
- smiles-str: "O=C1Nc2ccc(S(=O)(=O)N3CCOCC3)cc2C1=Cc1cc(O)c(O)c(O)c1"
  observable: "Biochem EGFR % Inhibition (P.167)"
  data-value: "62.4%"
- smiles-str: "O=C1Nc2c(Br)cc(Br)cc2C1=Cc1ccc(OCc2ccccc2)cc1"
  observable: "Biochem EGFR % Inhibition (P.167)"
  data-value: "−6.3%"
- smiles-str: "CCCCOc1ccc(C=C2C(=O)Nc3ccc(I)cc32)cc1"
  observable: "Biochem EGFR % Inhibition (P.167)"
  data-value: "48.1%"
- smiles-str: "O=C1Nc2ccc(I)cc2C1=Cc1cccc(Oc2ccc(Cl)c(Cl)c2)c1"
  observable: "Biochem EGFR % Inhibition (P.167)"
  data-value: "19.2%"
- smiles-str: "Cc1ccc(C)c(C=C2C(=O)Nc3c(Br)cc(Br)c(C)c32)c1"
  observable: "Biochem EGFR % Inhibition (P.167)"
  data-value: "17.2%"
- smiles-str: "O=C1Nc2ccc(CCCl)cc2C1=Cc1ccc(OCc2ccccc2)cc1"
  observable: "Biochem EGFR % Inhibition (P.167)"
  data-value: "−12.3%"
- smiles-str: "O=C1Nc2ccc(CCCl)cc2C1=Cc1cnc2ccccc2c1"
  observable: "Biochem EGFR % Inhibition (P.167)"
  data-value: "−9.4%"
- smiles-str: "O=C1Nc2c(Br)cc(Br)cc2C1=Cc1cccc(Oc2cccc(C(F)(F)F)c2)c1"
  observable: "Biochem EGFR % Inhibition (P.167)"
  data-value: "10.8%"
- smiles-str: "Cc1c(Br)ccc2c1C(=Cc1cc(O)cc(O)c1)C(=O)N2"
  observable: "Biochem EGFR % Inhibition (P.167)"
  data-value: "−19.0%"
- smiles-str: "CCCCOc1ccc(C=C2C(=O)Nc3c(Br)cc(Br)cc32)cc1"
  observable: "Biochem EGFR % Inhibition (P.167)"
  data-value: "26.0%"
- smiles-str: "O=C1Nc2ccc(CCCl)cc2C1=Cc1ccoc1"
  observable: "Biochem EGFR % Inhibition (P.167)"
  data-value: "−38.1%"
- smiles-str: "Cc1c(Br)ccc2c1C(=Cc1ccc3ccccc3c1)C(=O)N2"
  observable: "Biochem EGFR % Inhibition (P.167)"
  data-value: "16.3%"
- smiles-str: "COc1ccc(Oc2cccc(C=C3C(=O)Nc4ccc(CCCl)cc43)c2)cc1"
  observable: "Biochem EGFR % Inhibition (P.167)"
  data-value: "−18.5%"
- smiles-str: "O=C1Nc2ccc(S(=O)(=O)N3CCOCC3)cc2C1=Cc1cc(Br)cs1"
  observable: "Biochem EGFR % Inhibition (P.167)"
  data-value: "9.5%"
- smiles-str: "CC(C)(C)c1ccc(Oc2cccc(C=C3C(=O)Nc4ccc(S(=O)(=O)N5CCOCC5)cc43)c2)cc1"
  observable: "Biochem EGFR % Inhibition (P.167)"
  data-value: "14.6%"
- smiles-str: "CNS(=O)(=O)c1ccc2c(c1)C(=Cc1ccnc3ccccc13)C(=O)N2"
  observable: "Biochem EGFR % Inhibition (P.167)"
  data-value: "−6.9%"
- smiles-str: "CN(C)CCCOc1ccc(C=C2C(=O)Nc3ccc(S(=O)(=O)N4CCOCC4)cc32)cc1"
  observable: "Biochem EGFR % Inhibition (P.167)"
  data-value: "−19.6%"
- smiles-str: "CNS(=O)(=O)c1ccc2c(c1)C(=Cc1ccc(Cl)c(Cl)c1)C(=O)N2"
  observable: "Biochem EGFR % Inhibition (P.167)"
  data-value: "0.6%"
- smiles-str: "O=C1Nc2ccc(S(=O)(=O)Nc3ccc(C(F)(F)F)cc3)cc2C1=Cc1ccsc1"
  observable: "Biochem EGFR % Inhibition (P.167)"
  data-value: "29.1%"
- smiles-str: "CC(C)(C)c1ccc(Oc2cccc(C=C3C(=O)Nc4c(Br)cc(Br)cc43)c2)cc1"
  observable: "Biochem EGFR % Inhibition (P.167)"
  data-value: "10.9%"
- smiles-str: "CCCOc1ccc(C=C2C(=O)Nc3ccc(I)cc32)cc1"
  observable: "Biochem EGFR % Inhibition (P.167)"
  data-value: "18.0%"
- smiles-str: "Cc1c(Br)cc(Br)c2c1C(=Cc1cccc(Oc3ccc(C(C)(C)C)cc3)c1)C(=O)N2"
  observable: "Biochem EGFR % Inhibition (P.167)"
  data-value: "0.3%"
- smiles-str: "COc1ccc(C=C2C(=O)Nc3c(Br)cc(Br)c(C)c32)cc1C"
  observable: "Biochem EGFR % Inhibition (P.167)"
  data-value: "−12.3%"
- smiles-str: "O=C1Nc2ccc(S(=O)(=O)Nc3ccc(C(F)(F)F)cc3)cc2C1=Cc1ccc2ccccc2c1"
  observable: "Biochem EGFR % Inhibition (P.167)"
  data-value: "−7.8%"
- smiles-str: "COc1ccc(Oc2cccc(C=C3C(=O)Nc4ccc(S(=O)(=O)N5CCOCC5)cc43)c2)cc1"
  observable: "Biochem EGFR % Inhibition (P.167)"
  data-value: "−19.1%"
- smiles-str: "Cn1cc(C=C2C(=O)Nc3ccc(S(=O)(=O)Nc4ccc(C(F)(F)F)cc4)cc32)c2ccccc21"
  observable: "Biochem EGFR % Inhibition (P.167)"
  data-value: "2.7%"
- smiles-str: "CCOc1ccc(C=C2C(=O)Nc3c(Br)cc(Br)c(C)c32)cc1"
  observable: "Biochem EGFR % Inhibition (P.167)"
  data-value: "−17.2%"
- smiles-str: "CNS(=O)(=O)c1ccc2c(c1)C(=Cc1ccc(OC)c(C)c1)C(=O)N2"
  observable: "Biochem EGFR % Inhibition (P.167)"
  data-value: "2.6%"
- smiles-str: "Cc1c(Br)ccc2c1C(=Cc1ccc(Cl)c(Cl)c1)C(=O)N2"
  observable: "Biochem EGFR % Inhibition (P.167)"
  data-value: "−11.9%"
- smiles-str: "O=C1Nc2ccc(S(=O)(=O)N3CCOCC3)cc2C1=Cc1ccc(Cl)c(Cl)c1"
  observable: "Biochem EGFR % Inhibition (P.167)"
  data-value: "15.5%"
- smiles-str: "O=C1Nc2ccc(S(=O)(=O)N3CCOCC3)cc2C1=Cc1ccsc1"
  observable: "Biochem EGFR % Inhibition (P.167)"
  data-value: "14.8%"
